tested on: Botrytis cinerae; assay: Fungicidal activity against Cucumber Gray Mold Rot (CGM) disease; type: in vivo; conditions: Cucumber Gray Mold Rot; concentration 50 ppm
Decision: CGM (Fungicidal Activities, C.V.) compared against 5%; not below it gives condition met, below it gives condition not met.

Here's what some known entries look like.
> print(dat)
                                   compound              class
1  CON=C(C(=O)OC)c1ccccc1CON=Cc1cccc(OC(F)=Cc2ccc(F)cc2)c1  condition not met
2  CCOc1ccc(C=C(F)Oc2cccc(C(C)=NOCc3ccccc3C(=NOC)C(=O)NC)c2)cc1      condition met
3  CON=C(C(=O)OC)c1ccccc1CON=Cc1cccc(OC(F)=Cc2ccc(OC)cc2)c1      condition met
4  COC=C(C(=O)OC)c1ccccc1CON=C(c1cccc(OC(F)=Cc2ccc3c(c2)OCO3)c1)C(F)(F)F      condition met
5  COC=C(C(=O)OC)c1ccccc1CON=Cc1cccc(OC(F)=C(c2ccc(F)cc2)C(F)(F)F)c1  condition not met

Ask: API: above_or_equal(metric=CGM (Fungicidal Activities, C.V.), cutoff=5%) for item `COC=C(C(=O)OC)c1ccccc1CON=Cc1cccc(OC(F)=C(c2cccc(C)c2)C(F)(F)F)c1`
Result: condition not met

====

system: Phytophthora infestans; assay type: in vivo; settings: Tomato Late Blight; concentration 2 ppm
MEASURE NAME: TLB (Fungicidal Activities, C.V.) (%)
Give just the numeric value; % need not be written.

Ask: Endpoint output: TLB (Fungicidal Activities, C.V.) of `CCOc1ccc(C=C(F)Oc2cccc(C(C)=NOCc3ccccc3C(=NOC)C(=O)NC)c2)cc1` . Value?
Result: 12

====

system: Pyricularia oryzae Carvara KA301; type: in vivo; conditions: 2 ppm
Mark 0 (no) for Fungicidal Activities RCV (C.V.) values under 90%, and 1 (yes) for everything at or above.

Please review the entries below; each comes with its answer.
> print(dat)
                                   molecule    class
1  CON=C(C(=O)OC)c1ccccc1CON=C(C)c1cccc(OC(F)=C(c2ccc(F)cc2)C(F)(F)F)c1 [Compound 183]  1 (yes)
2  CNC(=O)C(=NOC)c1ccccc1CON=C(C)c1cccc(OC(F)=C(c2ccc(C)c(C)c2)C(F)(F)F)c1 [Compound 193]  1 (yes)
3  OC(c1ccc(Cl)cc1)(c1cncnc1)c1ccccc1Cl (stereo not drawn) [FENARIMOL, reference compound]   0 (no)

Ask: Textbook exercise: given the entry CNC(=O)C(=NOC)c1ccccc1CON=C(C)c1cccc(OC(F)=C(c2ccc(OC)cc2)C(F)(F)F)c1 [Compound 198] , state whether its Fungicidal Activities RCV (C.V.) is greater than or equal to 90%.
Result: 1 (yes)

Ask: Confirm if Fungicidal Activities RCV (C.V.) reported for the molecule CNC(=O)C(=NOC)c1ccccc1CON=C(C)c1cccc(OC(F)=C(c2ccccc2)C(F)(F)F)c1 [Compound 191] is 90% or above.
Result: 1 (yes)

Ask: Check if Fungicidal Activities RCV (C.V.) >= 90% (inclusive). Item: COC=C(C(=O)OC)c1ccccc1CON=C(C)c1cccc(OC(F)=C(c2ccc(F)cc2)C(F)(F)F)c1 [Compound 160]
Result: 0 (no)

====

system: Erysiphae graminis; assay: Fungicidal activity against Barley Powdery Mildew (BPM) disease; type: in vivo; conditions: Barley Powdery Mildew; concentration 2 ppm
Each entry below lists one item and its recorded BPM (Fungicidal Activities, C.V.) value.
Please give a number only; it is taken to be in %.

Below, 3 compounds whose answers are already recorded.
> print(dat)
                                   compound  value.observed
1  CNC(=O)C(=NOC)c1ccccc1CON=Cc1cccc(OC(F)=Cc2ccc3c(c2)OCO3)c1 [Compound 39]               0
2  CON=C(C(=O)OC)c1ccccc1CON=C(C)c1cccc(OC(F)=Cc2ccc(Cl)cc2)c1 [Compound 76]             100
3  CCc1ccc(C=C(F)Oc2cccc(C=NOCc3ccccc3C(=COC)C(=O)OC)c2)cc1 [Compound 6]              97

Consider the record given below.
Ask: Return reported BPM (Fungicidal Activities, C.V.); argument: CON=C(C(=O)OC)c1ccccc1CON=Cc1cccc(OC(F)=C(c2ccc(F)cc2)C(F)(F)F)c1 [Compound 135]
Result: 93

====

test system: Rhizoctonia solani AG-1; test: Fungicidal activity against Rice Sheath Blight (RSB) disease; conditions: Rice Sheath Blight; concentration 10 ppm
// RSB (Fungicidal Activities, C.V.) lookup, one value per entry
Write the value in % as a bare number.

> print(dat)
                                   compound  value.observed
1  COC=C(C(=O)OC)c1ccccc1CON=C(C)c1cccc(OC(F)=Cc2cccc(C)c2)c1              70
2  COC=C(C(=O)OC)c1ccccc1CON=C(C)c1cccc(OC(F)=C(c2cccc(C)c2)C(F)(F)F)c1              55

Ask: Notebook: pull reported RSB (Fungicidal Activities, C.V.) for Rhizoctonia solani AG-1, entry `CON=C(C(=O)OC)c1ccccc1CON=C(C)c1cccc(OC(F)=Cc2cc(C)cc(C)c2)c1`
Result: 70

Ask: Any idea what RSB (Fungicidal Activities, C.V.) came out for `COC=C(C(=O)OC)c1ccccc1CON=C(C)c1cccc(OC(F)=C(c2cc(C)cc(C)c2)C(F)(F)F)c1` on Rhizoctonia solani AG-1?
Result: 35

====

CGM (Fungicidal Activities, C.V.): recorded values
tested on: Botrytis cinerae; assay: Fungicidal activity against Cucumber Gray Mold Rot (CGM) disease; type: in vivo; conditions: Cucumber Gray Mold Rot; concentration 50 ppm
// return numeric value only (unit: %, not printed)

Worked examples, 8 compounds total:
> print(dat)
                                   compound                       measure.name  value.observed
1  CNC(=O)C(=NOC)c1ccccc1CON=Cc1cccc(OC(F)=Cc2ccc(F)cc2)c1  CGM (Fungicidal Activities, C.V.)               0
2  CO/C=C(/C(=O)OC)c1ccccc1CON=C(C)c1cccc(OC(F)=Cc2ccccc2)c1  CGM (Fungicidal Activities, C.V.)              75
3  CCOc1ccc(C(=C(F)Oc2cccc(C=NOCc3ccccc3C(=NOC)C(=O)NC)c2)C(F)(F)F)cc1  CGM (Fungicidal Activities, C.V.)               0
4  CON=C(C(=O)OC)c1ccccc1CON=Cc1cccc(OC(F)=Cc2ccc3c(c2)OCO3)c1  CGM (Fungicidal Activities, C.V.)               0
5  COC=C(C(=O)OC)c1ccccc1CON=C(C)c1cccc(OC(F)=C(c2ccccc2)C(F)(F)F)c1  CGM (Fungicidal Activities, C.V.)              44
6  CON=C(C(=O)OC)c1ccccc1CON=C(C)c1cccc(OC(F)=Cc2cc(C)cc(C)c2)c1  CGM (Fungicidal Activities, C.V.)              56
7  COC=C(C(=O)OC)c1ccccc1CON=C(C)c1cccc(OC(F)=C(c2ccc(C)cc2)C(F)(F)F)c1  CGM (Fungicidal Activities, C.V.)              44
8  COC=C(C(=O)OC)c1ccccc1CON=C(c1cccc(OC(F)=Cc2ccc(OC)cc2)c1)C(F)(F)F  CGM (Fungicidal Activities, C.V.)               0

Ask: Give the reported CGM (Fungicidal Activities, C.V.) for `CON=C(C(=O)OC)c1ccccc1CON=C(C)c1cccc(OC(F)=Cc2ccc(F)cc2)c1` (system: Botrytis cinerae).
Result: 72

Ask: Quick check: CGM (Fungicidal Activities, C.V.) on Botrytis cinerae, item `CCOc1ccc(C=C(F)Oc2cccc(C=NOCc3ccccc3C(=NOC)C(=O)NC)c2)cc1` ?
Result: 0

Ask: Quick check: CGM (Fungicidal Activities, C.V.) on Botrytis cinerae, item `COC=C(C(=O)OC)c1ccccc1CON=C(C)c1cccc(OC(F)=C(c2ccc(OC)cc2)C(F)(F)F)c1` ?
Result: 44

====

system: Botrytis cinerae; assay: Fungicidal activity against Cucumber Gray Mold Rot (CGM) disease; assay type: in vivo; conditions: Cucumber Gray Mold Rot; concentration 50 ppm
The entries below are paired with their reported CGM (Fungicidal Activities, C.V.).
Please reply with the bare figure in % and do not write the unit itself.

Worked cases, CGM (Fungicidal Activities, C.V.) given:
> print(dat)
                                   compound         tested.on  value.observed
1  CON=C(C(=O)OC)c1ccccc1CON=Cc1cccc(OC(F)=C(c2ccccc2)C(F)(F)F)c1  Botrytis cinerae              42
2  CCc1ccc(C=C(F)Oc2cccc(C(C)=NOCc3ccccc3C(=NOC)C(=O)NC)c2)cc1  Botrytis cinerae              80
3  COC=C(C(=O)OC)c1ccccc1CON=C(C)c1cccc(OC(F)=C(c2cccc(C)c2)C(F)(F)F)c1  Botrytis cinerae              24

Ask: # lookup: CGM (Fungicidal Activities, C.V.) of `CNC(=O)C(=NOC)c1ccccc1CON=Cc1cccc(OC(F)=C(c2ccccc2)C(F)(F)F)c1`
Result: 0

Value source: patent US6552080B1
